Recorded growth values for a group of molecules are listed next.
Test system: NCI/ADR-RES ovarian
Test: NCI-60 one-dose screen, 48 h (100 = growth as untreated, 0 = no growth, -100 = all killed)
Conditions: 10 µM
Method: Growth inhibition of the NCI/ADR-RES human […] tumor cell line is measured as a screen for anti-cancer activity. Cells are grown in 96 well plates and exposed to the test compound for 48 hours. Compounds are tested at a single concentration, which is 10^-5 M for most compounds. The reported endpoint is percent growth (GI% or GIPRCNT), where numbers from 0 - 100% represent growth inhibition, and numbers from -100% - 0 represent cell death. For example, a value of 40 represents 60% growth inhibition. […]
This is part of a sample that, as a whole, favours compounds with a hit. Of some 83,000 tested, about 20% had one in any assay.
recordedMetric: growth (%)

molecule=CC1(C)CC[C@]2(C(=O)NCCCNCCCCNCCCN)CC[C@]3(C)C(=CC[C@@H]4[C@@]5(C)Cc6c([nH]c7ccccc67)C(C)(C)[C@@H]5CC[C@]43C)[C@H]2C1 quantityunit=% reading=93.2
molecule="COc1ccccc1[C@H]1C(C(=O)c2ccc(Cl)cc2)C2(N[C@@H]1c1ccccc1)C(=O)Nc1ccccc12 (some centres not stated)" quantityunit=% reading=-69.7
molecule=CN1CCN(c2ccc(Nc3nc(N4CCN(S(=O)(=O)c5ccc(Cl)cc5)CC4)c4sccc4n3)cc2)CC1 quantityunit=% reading=16.1
molecule=COc1cc(Cn2c(C(F)(F)F)cc3c(Cl)ncnc32)ccn1 quantityunit=% reading=67.7
molecule=O=C(Nc1ccc(I)cc1F)c1cc(-c2ccc(F)cc2F)ccc1O quantityunit=% reading=-8.34
molecule=CCOC(=O)c1c(CSc2ccccc2)n(C)c2cc(CN(C)C)c(O)c(CN(C)C)c12 quantityunit=% reading=76.4
molecule=CCCSc1nc(NC2CC2)c(C#N)c(-c2ccc(OC)cc2)n1 quantityunit=% reading=68.7
molecule=O=C(CSc1nnc(-c2c[nH]c3ccccc23)n1-c1ccccc1)c1ccc(Br)cc1 quantityunit=% reading=26.3
molecule=Cc1ccc(/C(CSc2nnc(-c3c[nH]c4ccccc34)n2-c2ccccc2)=N/O)cc1 quantityunit=% reading=-68.4
molecule="O=C(c1ccc(Cl)cc1)C1[C@H](c2ccc(Br)cc2)[C@@H](c2ccccc2)NC12C(=O)Nc1ccc(Br)cc12 (some centres not stated)" quantityunit=% reading=-85.6
molecule=CCCCSc1nc(Nc2ccc(/C(C)=N/NC(N)=S)cc2)c(C#N)c(-c2ccccc2)n1 quantityunit=% reading=25.3
molecule=CC(=O)c1ccc(NC(=O)NCn2c(=O)[nH]c3ccccc3c2=O)cc1 quantityunit=% reading=107
molecule=OCCNc1oc(-c2ccccc2)nc1[P+](c1ccccc1)(c1ccccc1)c1ccccc1 quantityunit=% reading=99
molecule=Nc1nc2c(F)c(F)c(F)c(F)c2s1 quantityunit=% reading=104
molecule=Clc1ccc2c(N/N=C/c3c[nH]c4ccc(Br)cc34)ccnc2c1 quantityunit=% reading=-77.5
molecule=COc1cccc(COc2ccc(/C=C3\Oc4cc(O)ccc4C3=O)cc2)c1 quantityunit=% reading=24.8
molecule=COc1ccc(-c2ccc(/C=N/NC(=O)c3[nH]c4ccc(Br)cc4c3-c3ccccc3)o2)cc1 quantityunit=% reading=-22.8
molecule=COc1cc(/C=C/C(=O)c2ccc(S(=O)(=O)NCCNc3nc(Nc4ccc(F)cc4)nc(N(C)C)n3)cc2)cc(OC)c1OC quantityunit=% reading=46.6
molecule=CCOc1ccc(/C=N/NC(=O)Cn2nc(Cc3ccc([N+](=O)[O-])cc3)c3onc(C)c3c2=O)cc1 quantityunit=% reading=19.4
molecule="C=C1CCC2C3(C)COC(c4ccccc4F)OC3CCC2(C)C1C/C=C1/C(=O)OCC1O (configuration not stated)" quantityunit=% reading=-23
molecule=O=c1cc(-c2ccccc2)oc2cc(OCCCCNCc3ccccc3)cc(O)c12 quantityunit=% reading=-68.4
molecule="O=C(Cc1ccc2c(c1)CN(C1CCC(=O)NC1=O)C2=O)NCc1cccc2ccccc12 (configuration not stated)" quantityunit=% reading=-18.5
molecule=Cc1ccc(-c2cc(-c3cc4ccccc4nc3Cl)[nH]c(=S)n2)cc1 quantityunit=% reading=42
molecule=COc1ccc2[nH]c(=O)c(CSc3nccc(-c4ccc(Cl)cc4)n3)cc2c1 quantityunit=% reading=12.2
molecule=O=C(CNc1nc(-c2ccccc2)cs1)Nc1ccc([N+](=O)[O-])cc1 quantityunit=% reading=-20.4
molecule="CO[C@@H]1CSSC1Cn1nc(-c2ccc(Oc3ccccc3)cc2)c2c(N)ncnc21 (some centres not stated)" quantityunit=% reading=57.5
molecule=Cc1ccc(NCC(=O)Nn2c(COc3ccccc3)nc3ccccc3c2=O)cc1 quantityunit=% reading=72.6
molecule="CC1(c2ccccc2)NC(=O)N(CC(=O)Nc2ccc(C(=O)/C=C/c3ccccc3)cc2)C1=O (configuration not stated)" quantityunit=% reading=87.5
molecule="CN1C(=O)N(C)C2SC(N/N=C/C=C/c3ccccc3)=NC21 (configuration not stated)" quantityunit=% reading=73.9
molecule=O=C(COc1ccc(NC(=O)Nc2ccc(Cl)cc2)cc1)N=Nc1c(O)[nH]c2ccc([N+](=O)[O-])cc12 quantityunit=% reading=92.6
molecule=CN(C(=O)c1ccc(C(F)(F)F)cc1C(F)(F)F)c1sc2c(c1C#N)CCC(=O)C2 quantityunit=% reading=55
molecule=CN1CCN(c2ccc(Nc3nc(N4CCN(S(=O)(=O)c5ccc(F)cc5)CC4)c4sccc4n3)cc2)CC1 quantityunit=% reading=-83
molecule=Cc1ccc2nc(COc3ccc(C(=O)NNC(=S)NC(=O)c4ccccc4)cc3)[nH]c2c1 quantityunit=% reading=-3.62
molecule="C=C1CCC2C3(C)COC(c4c(F)cccc4F)OC3CCC2(C)C1C/C=C1/C(=O)OCC1O (configuration not stated)" quantityunit=% reading=-15.1
molecule=O=c1[nH]c2ccccc2cc1CSc1ccc(Nc2nccc(-c3ccc4c(c3)OCO4)n2)cc1 quantityunit=% reading=83.7
molecule=CCOc1ccc2ncc(C#Cc3cncc(C(=O)Nc4ccc(CN5CCN(C)CC5)c(C(F)(F)F)c4)c3)n2n1 quantityunit=% reading=-70.1
molecule=CCOC(=O)N/C(=C1/OCCN1C)[P+](c1ccccc1)(c1ccccc1)c1ccccc1 quantityunit=% reading=106
